System: HeLa
assay details: Cytotoxicity against human HeLa cells after 3 days by MTT assay
Assay type: functional, cell-based
particulars: 72 h
quantity: IC50
Dear colleague, please send the value followed by its unit.

Solved cases (2 shown):
Cc1ccc2nc(C)n(NC(=O)/C(C#N)=C/c3ccccc3)c(=O)c2c1 :: 13 µM
Cc1ccc2nc(C)n(NC(=O)c3sc4c(c3N)CCCC4)c(=O)c2c1 :: 31 µM

Lookup: GET /values?readout=IC50&item= `Cc1ccc2nc(C)n(NC(=O)c3sc(=S)n(Cc4ccccc4)c3N)c(=O)c2c1`
Found: 26 µM

Lookup: GET /values?readout=IC50&item= `Cc1ccc2nc(C)n(NC(=O)c3cc4ccccc4oc3=N)c(=O)c2c1`
Found: 38 µM

Lookup: GET /values?readout=IC50&item= `Cc1ccc2nc(C)n(NC(=O)c3sc(N)c(C#N)c3N)c(=O)c2c1`
Found: 15 µM

Lookup: GET /values?readout=IC50&item= `Cc1ccc2nc(C)n(NC(=O)/C(C#N)=C/c3ccc(O)c(O)c3)c(=O)c2c1`
Found: 8 µM

Lookup: GET /values?readout=IC50&item= `Cc1ccc2nc(C)n(-n3c(N)c(C#N)c(-c4ccccc4)c(C#N)c3=O)c(=O)c2c1`
Found: 5 µM
